These measurements were taken from patent US20210275641A1.

Biological target: T1, IL-2 receptor of the human CD4 positive T cell clone 3F8 (expresses CD25 and CD122) (human, UniProt P01589 22-272; P14784 27-551)
T1 sequence 1: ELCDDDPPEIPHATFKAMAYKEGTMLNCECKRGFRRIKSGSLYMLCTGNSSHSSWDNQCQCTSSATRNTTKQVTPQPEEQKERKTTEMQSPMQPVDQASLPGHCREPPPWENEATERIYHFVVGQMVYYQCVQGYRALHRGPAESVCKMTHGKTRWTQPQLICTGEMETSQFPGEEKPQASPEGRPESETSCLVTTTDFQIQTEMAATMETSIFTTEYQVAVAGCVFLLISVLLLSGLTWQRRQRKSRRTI
T1 sequence 2: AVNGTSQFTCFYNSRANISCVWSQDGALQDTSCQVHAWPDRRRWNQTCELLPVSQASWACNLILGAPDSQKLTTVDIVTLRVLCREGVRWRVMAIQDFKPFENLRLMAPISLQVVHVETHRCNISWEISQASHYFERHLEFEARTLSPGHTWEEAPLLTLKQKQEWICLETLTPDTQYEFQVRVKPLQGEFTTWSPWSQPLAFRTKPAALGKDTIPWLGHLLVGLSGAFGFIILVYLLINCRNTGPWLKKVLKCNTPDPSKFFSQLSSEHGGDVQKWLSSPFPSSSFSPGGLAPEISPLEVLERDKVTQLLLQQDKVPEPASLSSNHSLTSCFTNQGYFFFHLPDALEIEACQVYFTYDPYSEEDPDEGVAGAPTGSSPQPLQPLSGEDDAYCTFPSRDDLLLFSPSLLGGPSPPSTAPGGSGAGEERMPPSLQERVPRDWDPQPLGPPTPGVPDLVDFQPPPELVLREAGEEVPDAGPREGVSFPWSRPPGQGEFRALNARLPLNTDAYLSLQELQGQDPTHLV
Assay: cell-based or functional assay
property.label: Proliferation IC50 (pM), 3F8 cells

I: hIL2 mutein REN (L18R, Q22E, Q126N) (ligand) APTSSSTKKTQLQLEHLRLDLEMILNGINNYKNPKLTRMLTFKFYMPKKATELKHLQCLEEELKPLEEVLNLAQSKNFHLRPRDLISNINVIVLELKGSETTFMCEYADETATIVEFLNRWITFCNSIISTLT
II: hIL2 mutein HEK (L18H, Q22E, Q126K) (ligand) APTSSSTKKTQLQLEHLHLDLEMILNGINNYKNPKLTRMLTFKFYMPKKATELKHLQCLEEELKPLEEVLNLAQSKNFHLRPRDLISNINVIVLELKGSETTFMCEYADETATIVEFLNRWITFCKSIISTLT
III: hIL2 mutein REL (L18R, Q22E, Q126L) (ligand) APTSSSTKKTQLQLEHLRLDLEMILNGINNYKNPKLTRMLTFKFYMPKKATELKHLQCLEEELKPLEEVLNLAQSKNFHLRPRDLISNINVIVLELKGSETTFMCEYADETATIVEFLNRWITFCLSIISTLT
IV: hIL2 mutein EEK (L18E, Q22E, Q126K) (ligand) APTSSSTKKTQLQLEHLELDLEMILNGINNYKNPKLTRMLTFKFYMPKKATELKHLQCLEEELKPLEEVLNLAQSKNFHLRPRDLISNINVIVLELKGSETTFMCEYADETATIVEFLNRWITFCKSIISTLT
Please arrange the 4 binders above from largest to smallest Proliferation IC50 (pM), 3F8 cells value. Please write the labels in the order that was asked for.
III, IV, II, I
